Listing of entries alongside the reported pEC50.
- Assay System: TRAP1 enzyme (Homo sapiens)
- Sequence (Q12931 60-704): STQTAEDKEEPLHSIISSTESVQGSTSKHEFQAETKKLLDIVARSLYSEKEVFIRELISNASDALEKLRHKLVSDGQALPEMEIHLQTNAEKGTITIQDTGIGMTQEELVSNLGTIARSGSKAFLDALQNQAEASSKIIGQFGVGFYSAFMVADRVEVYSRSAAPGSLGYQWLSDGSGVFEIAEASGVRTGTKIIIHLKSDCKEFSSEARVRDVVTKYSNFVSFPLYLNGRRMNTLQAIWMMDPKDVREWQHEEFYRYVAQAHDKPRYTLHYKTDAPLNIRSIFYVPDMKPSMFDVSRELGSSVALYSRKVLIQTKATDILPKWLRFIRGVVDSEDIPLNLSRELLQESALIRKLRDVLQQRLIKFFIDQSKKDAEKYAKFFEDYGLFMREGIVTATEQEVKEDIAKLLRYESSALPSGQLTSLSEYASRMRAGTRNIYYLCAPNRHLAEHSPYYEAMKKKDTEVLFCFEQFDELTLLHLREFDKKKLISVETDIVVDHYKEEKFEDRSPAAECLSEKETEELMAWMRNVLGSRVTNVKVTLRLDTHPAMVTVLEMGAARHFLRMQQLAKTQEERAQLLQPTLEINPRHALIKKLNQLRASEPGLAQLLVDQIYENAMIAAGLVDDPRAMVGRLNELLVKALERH
- Method Notes: ADP Glo assay of TRAP1 ATPase activity
- Type: biochemical
- Applied Conditions: TRAP1 ATPase activation, 150 nM Trap1, 20 μM ATP, geometric mean; read-out: ADP GLO DRC: GeoMean EC50
pEC50: −log10 of the molar value.
Observation Type: pEC50

| Smiles String | Observation Type | Result |
| --- | --- | --- |
| COc1ccc(NC(=O)c2cccc(-n3ccnc3)c2)cc1S(=O)(=O)Nc1c(C)cccc1C | pEC50 | 4.70 to 5.00 |
| COc1ccc(NC(=O)c2cccc(-c3noc(C)n3)c2)cc1S(=O)(=O)Nc1c(C)cccc1C | pEC50 | > 5.00 |
| COc1ccc(NC(=O)c2cc(C3CC3)on2)cc1S(=O)(=O)Nc1c(C)cccc1C | pEC50 | 4.70 to 5.00 |
| CCN1CCN(c2ccc(C(=O)Nc3ccc(OC)c(S(=O)(=O)Nc4c(C)cccc4C)c3)cc2)CC1 | pEC50 | 4.00 to 4.70 |
| COc1ccc(NC(=O)c2ccc(F)c(-c3c(F)cccc3F)n2)cc1S(=O)(=O)Nc1c(C)cccc1C | pEC50 | > 5.00 |
| COc1ccc(NC(=O)c2csc3c2CCCC3)cc1S(=O)(=O)Nc1c(C)cccc1C | pEC50 | > 5.00 |
| COc1ccc(NC(=O)c2ccc3nsnc3c2)cc1S(=O)(=O)Nc1c(C)cccc1C | pEC50 | 4.70 to 5.00 |
| COc1ccc(NC(=O)c2ncc(-c3ccccc3)o2)cc1S(=O)(=O)Nc1c(C)ccc2ncccc12 | pEC50 | > 5.00 |
| COc1ccc(NC(=O)c2ncc(-c3ccccc3)o2)cc1S(=O)(=O)Nc1cc2ccccc2nn1 | pEC50 | 4.00 to 4.70 |
| COc1ccc(NC(=O)c2cccc(Cc3ccc(F)cc3)c2)cc1S(=O)(=O)Nc1c(C)cccc1C | pEC50 | > 5.00 |
| COc1ccc(NC(=O)c2ccnc(Cl)c2C)cc1S(=O)(=O)Nc1c(C)cccc1C | pEC50 | 4.00 to 4.70 |
| COc1ccc(NC(=O)c2ccnc(-c3ccccc3)c2)cc1S(=O)(=O)Nc1c(C)cccc1C | pEC50 | > 5.00 |
| COc1ccc(NC(=O)c2ccc(S(=O)(=O)N(C)C)cc2)cc1S(=O)(=O)Nc1c(C)cccc1C | pEC50 | 4.00 to 4.70 |
| COc1ccc(NC(=O)c2csc(C)c2C)cc1S(=O)(=O)Nc1c(C)cccc1C | pEC50 | > 5.00 |
| COc1ccc(NC(=O)c2cc3c(C)nn(C)c3s2)cc1S(=O)(=O)Nc1c(C)cccc1C | pEC50 | > 5.00 |
| CCc1noc(CC)c1C(=O)Nc1ccc(F)c(S(=O)(=O)Nc2ccc(Cl)cc2)c1 | pEC50 | 4.00 to 4.70 |

Ref: patent US20230174523A1
